Target: unphosphorylated-BTK kinase domain (UP-BTK), GST-tagged human BTK (389-659aa) (Homo sapiens (Human), UniProt Q06187)
Sequence (Q06187 389-659): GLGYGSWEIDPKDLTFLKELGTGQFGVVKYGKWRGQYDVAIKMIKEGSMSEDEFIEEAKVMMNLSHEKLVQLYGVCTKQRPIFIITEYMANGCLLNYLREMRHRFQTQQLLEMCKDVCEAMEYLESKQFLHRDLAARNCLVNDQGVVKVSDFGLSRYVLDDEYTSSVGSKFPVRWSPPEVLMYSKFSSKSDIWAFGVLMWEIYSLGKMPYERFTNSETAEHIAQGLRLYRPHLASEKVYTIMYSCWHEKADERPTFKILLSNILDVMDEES
Assay: BTK kinase Lanthascreen binding assay
Details: pIC50 = negative log of the IC50 in molar; 60 minutes incubation, 50 nM Tracer 236
Protocol: BTK Kinase Lanthascreen Binding Assay: A BTK kinase lanthascreen binding assay monitors compound binding to unphosphorylated-BTK kinase domain (UP-BTK), by competing with a fluorescent labeled tracer. […] Data were analyzed using Xlfit™ version 5.3 from ID Business Solutions (Guildford), Microsoft Excel add-in. pIC50 refers to the negative log of the IC50 in molar
measurement-label: BTK_I_binding pIC50
Form field (numeric): enter value without unit.

Solved cases (5 shown):
input-smiles	observed
Cc1cc(Oc2ccccc2)ccc1N1C(=O)Nc2c(C(=O)N[C@@H]3CCN(C(=O)CCS(C)(=O)=O)C3)sc3nccc1c23	7.7
C=CC(=O)N1CCC[C@@H](NC(=O)c2sc3nccc4c3c2NC(=O)N4c2ccc(OC3CC3)cc2C)C1	7.5
Cc1cc(Oc2ccccc2)ccc1N1C(=O)Nc2c(C(=O)NC3CN(C)C3)sc3nccc1c23	6.5
Cc1cc(Oc2ccccc2)ccc1N1C(=O)Nc2c(C(=O)NCCN3CCOCC3)sc3nccc1c23	6.3
COC[C@@H](OC)C(=O)N1CCC[C@@H](NC(=O)c2sc3nccc4c3c2NC(=O)N4c2ccc(Oc3ccccc3)cc2C)C1	7.0

Challenge: Request the reported BTK_I_binding pIC50 associated with COCc1cccc(Oc2ccc(N3C(=O)Nc4c(C(=O)N[C@@H]5CCCN(C)C5)sc5nccc3c45)c(C)c2)c1
Response given: 6.5

Challenge: Request the reported BTK_I_binding pIC50 associated with COC[C@H](N)C(=O)N1CCC[C@@H](NC(=O)c2sc3nccc4c3c2NC(=O)N4c2ccc(Oc3ccccc3)cc2C)C1
Response given: 7.1
